measured.on: FGFR3-BAIAP2L1 Ba/F3 cells (Homo sapiens, UniProt P22607)
Sequence (P22607 23-806 limits assumed, change not shown): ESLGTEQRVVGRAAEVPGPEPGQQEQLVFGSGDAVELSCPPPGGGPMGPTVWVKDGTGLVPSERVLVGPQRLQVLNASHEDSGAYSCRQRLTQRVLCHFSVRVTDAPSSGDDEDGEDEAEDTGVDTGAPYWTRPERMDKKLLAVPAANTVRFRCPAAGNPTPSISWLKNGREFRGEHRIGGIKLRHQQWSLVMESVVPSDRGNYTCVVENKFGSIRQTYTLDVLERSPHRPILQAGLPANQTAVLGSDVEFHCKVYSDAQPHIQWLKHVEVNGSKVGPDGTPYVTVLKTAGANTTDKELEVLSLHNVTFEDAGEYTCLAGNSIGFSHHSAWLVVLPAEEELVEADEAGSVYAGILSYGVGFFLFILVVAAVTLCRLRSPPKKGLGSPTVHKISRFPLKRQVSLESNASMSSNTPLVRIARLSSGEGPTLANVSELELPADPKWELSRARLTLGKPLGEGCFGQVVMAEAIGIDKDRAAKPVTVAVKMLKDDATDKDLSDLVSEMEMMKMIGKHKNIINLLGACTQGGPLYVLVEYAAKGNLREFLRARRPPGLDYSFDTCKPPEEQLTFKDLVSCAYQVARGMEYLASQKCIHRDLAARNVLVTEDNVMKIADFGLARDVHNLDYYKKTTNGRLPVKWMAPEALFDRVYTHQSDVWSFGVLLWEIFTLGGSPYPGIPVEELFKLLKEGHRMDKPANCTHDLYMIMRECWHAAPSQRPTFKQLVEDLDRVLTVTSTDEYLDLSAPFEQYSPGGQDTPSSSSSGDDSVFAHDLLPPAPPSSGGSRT
measurement.description: Ba/F3 cell viability assay (CellTiter-Glo 2.0), FGFR3-BAIAP2L1 Ba/F3
Type: cell-based
measurement.parameters: read-out: Ba/F3 Cells FGFR3 (IC50 nM); FGFR3-BAIAP2L1 Ba/F3 cells, 48 hours, Cell Titer Glo 2.0
recorded.endpoint: IC50

>>> result("C[C@@H](Oc1ccc2[nH]nc(-c3ccc(C4CCN(C(=O)N(C)C)CC4)nc3)c2c1)c1c(Cl)cncc1Cl")
"1 to 20 nM"

Look up IC50 for this compound: C[C@@H](Oc1ccc2[nH]nc(-c3ccc(N4CCC5(CC4)CCS(=O)(=O)C5)nc3)c2c1)c1c(Cl)cncc1Cl
1 to 20 nM

Also, C[C@@H](Oc1ccc2[nH]nc(-c3cnn([C@H]4CCNC4)c3)c2c1)c1c(Cl)cncc1Cl please.
1 to 20 nM

Next compound up: C[C@@H](Oc1ccc2[nH]nc(-c3ccc(N4CC5(CCNCC5)OC4=O)nc3)c2c1)c1c(Cl)cncc1Cl
20 to 100 nM

And then C[C@@H](Oc1ccc2[nH]nc(-c3cnn(C4CCN(C(=O)CCN(C)C)CC4)c3)c2c1)c1c(Cl)cncc1Cl , what is it?
1 to 20 nM

Also check C[C@@H](Oc1ccc2[nH]nc(-c3ccc(N4CC5(CCN5S(C)(=O)=O)C4)nc3)c2c1)c1c(Cl)cncc1Cl
1 to 20 nM

Another: CCS(=O)(=O)N1CC2(CN(c3ccc(-c4n[nH]c5ccc(O[C@H](C)c6c(Cl)cncc6Cl)cc45)cn3)C2)C1
1 to 20 nM

COC(=O)N1CCC2(CC1)CN(c1ccc(-c3n[nH]c4ccc(O[C@H](C)c5c(Cl)cncc5Cl)cc34)cn1)C2 ?
1 to 20 nM

Similarly, C[C@@H](Oc1ccc2[nH]nc(-c3ccc(N4CCC5(CCC(=O)N5)CC4)nc3)c2c1)c1c(Cl)cncc1Cl ?
1 to 20 nM

Also check COC(=O)N1CCC2(CC1)CN(c1ncc(-c3n[nH]c4ccc(O[C@H](C)c5c(Cl)cncc5Cl)cc34)cn1)C2
20 to 100 nM

Also C[C@@H](Oc1ccc2[nH]nc(-c3ccc(N4CCN(S(=O)(=O)N5CCN(C)CC5)CC4)nc3)c2c1)c1c(Cl)cncc1Cl ?
1 to 20 nM

Follow-up entry: Cc1ncc(Cl)c([C@@H](C)Oc2ccc3[nH]nc(-c4cnn(C5CCS(=O)(=O)CC5)c4)c3c2)c1Cl
1 to 20 nM

Follow-up item: C[C@@H](Oc1ccc2[nH]nc(-c3ccc(N4CCC5(CC4)CN(C)CC(=O)N5C)nc3)c2c1)c1c(Cl)cncc1Cl
1 to 20 nM

Okay, and COC(=O)N1CCCC2(C1)CN(c1ccc(-c3n[nH]c4ccc(O[C@H](C)c5c(Cl)cncc5Cl)cc34)cn1)C2 ?
1 to 20 nM

Follow-up item: C[C@@H](Oc1ccc2[nH]nc(-c3ccc(N4CC5(CN(C(=O)N(C)C)C5)C4)nc3)c2c1)c1c(Cl)cncc1Cl
1 to 20 nM

Now this one: C[C@@H](Oc1ccc2[nH]nc(-c3ccc(N4CCN(S(C)(=O)=O)CC4=O)nc3)c2c1)c1c(Cl)cncc1Cl
1 to 20 nM

Moving on to the next compound: C[C@@H](Oc1ccc2[nH]nc(-c3cnc(N4CCC5(CCCN5)CC4)nc3)c2c1)c1c(Cl)cncc1Cl
20 to 100 nM

Please answer likewise for C[C@@H](Oc1ccc2[nH]nc(-c3cnn(C4CCN(C)CC4)c3)c2c1)c1c(Cl)cncc1Cl
1 to 20 nM

Here is the next compound: C[C@@H](Oc1ccc2[nH]nc(-c3cnc(N4CCN(S(C)(=O)=O)CC4)nc3)c2c1)c1c(Cl)cncc1Cl
1 to 20 nM

Do the same for C[C@@H](Oc1ccc2[nH]nc(-c3cnn(C4CCNCC4)c3)c2c1)c1c(Cl)cncc1Cl please
1 to 20 nM

Try the compound C[C@@H](Oc1ccc2[nH]nc(-c3cnn(C4CCN(C(N)=O)CC4)c3)c2c1)c1c(Cl)cncc1Cl
1 to 20 nM
